- target-or-system: KRasG12C (M1-K169, biotinylated on the N-terminus) (Homo sapiens (Human), UniProt P01116, G12C)
- assay-overview: Covalent competition assay: scintillation proximity assay (SPA) quantifying covalent modification of KRASG12C
- Type: binding
- stated-conditions: competition with radiolabeled covalent probe (Compound B/Compound A), 2 hours incubation, 10 nM KRasG12C
I'd be grateful if you could share measured IC50 for these entries.
Kindly provide the numeric value in nM only, without the unit symbol.

Task item: Suppose we examine the compound "C=CC(=O)N1CC2(CC(n3nc(N4C[C@@H]5C[C@H]4CN5C(C)=O)c(-c4c(Cl)c(C)cc5[nH]ncc45)c3C)C2)C1" ; what IC50 value has been reported?
Reply: 1000

Task item: Returns the measured IC50 for the input compound. Input: C=CC(=O)N1CC2(CC(n3nc(N4CCn5nccc5C4(C)C)c(-c4c(Cl)c(C)cc5[nH]ncc45)c3C)C2)C1 (single isomer, unassigned) [Example 101b]
Reply: 103

Task item: Data request, read-out IC50, for C=CC(=O)N1CC2(CC(n3nc(N4CCC(O)CC4(C)C)c(-c4c(Cl)c(C)cc5[nH]ncc45)c3C)C2)C1 (single isomer, unassigned) [Example 30a]
Reply: 514

Task item: Item C=CC(=O)N1CC2(CC(n3nc(N4CCC(O)(CN5CCOCC5)CC4(C)C)c(-c4c(Cl)c(Cl)cc5[nH]ncc45)c3C)C2)C1 (single isomer, unassigned) [Example 238b] has what recorded IC50?
Reply: 503
